test system: NCI-H522 lung; assay: NCI tumour cell line growth inhibition, 48 h
Answer no (0) if TGI is under 30 µM, and yes (1) if it is 30 µM or more.

COMPOUND: COc1cc2c(c(O)c1OC)C(=O)[C@@H]1CCC(=O)N1C2c1ccccc1 (some centres not stated)
CLASS LABEL: yes (1)
--
COMPOUND: O=C1C=CC(=C(c2ccccc2)c2ccc(O)cc2)C=C1
CLASS LABEL: no (0)
--
COMPOUND: CCOC(=O)C(CCC(N)=O)(CCC(=O)OC)C(=O)OCC
CLASS LABEL: yes (1)
--
COMPOUND: CCOC(=O)c1ccc(C(=O)n2ccnc2)[nH]1
CLASS LABEL: yes (1)
--
COMPOUND: O=C(NCCCl)Nc1cccnc1
CLASS LABEL: yes (1)
--
COMPOUND: N#Cc1ccc(-c2nc3c(N)nc(-c4ccccc4)nc3o2)cc1
CLASS LABEL: yes (1)
--
COMPOUND: O=C(c1ccccc1Cl)n1oc2ccccc2c1=O
CLASS LABEL: yes (1)
--
COMPOUND: CC1(C)C2CCC1(C)C(OC(=O)/C=C/C(=O)OC1CC3CCC1(C)C3(C)C)C2 (configuration not stated)
CLASS LABEL: yes (1)
--
COMPOUND: C[Si](C)(C)c1ccc(-c2c3ccc(-c4cc(Br)cc(Br)c4)nc3nc3nc(-c4cc(Br)cc(Br)c4)ccc23)cc1
CLASS LABEL: yes (1)
--
COMPOUND: CC(C)[C@@](O)(c1ccc2cc(OC(F)F)c(OC(F)F)cc2c1)c1cn[nH]n1
CLASS LABEL: yes (1)
--
COMPOUND: CCOc1ccc(/C=C/c2cc(OC)c(OC)c(OC)c2)cc1
CLASS LABEL: no (0)
--
COMPOUND: O=C(/C=C/c1ccccc1O)c1ccc([N+](=O)[O-])cc1
CLASS LABEL: yes (1)

---

tested on: SW-620 colon; assay: NCI tumour cell line growth inhibition, 48 h

MOLECULE: O=C(OCCCl)C1OC(n2cc(F)c(=O)[nH]c2=O)CC1O (stereo not drawn)
TGI: > 100 µM
--
MOLECULE: CC(C)(Oc1ccc(Cl)cc1)C(=O)N(C(=O)N1CCCCC1)c1ccccc1
TGI: > 100 µM
--
MOLECULE: COc1cc(C2OC(N)=C(C#N)C3=C2C(C)CCC3)cc(OC)c1OC (stereo not drawn)
TGI: > 100 µM

---

The following are reported GI50 results, target or system MDA-MB-435.
EXPERIMENTAL ENDPOINT: GI50

QUERY SMILES: O=C(COc1cccc(/C=C2\CSc3ccc(Cl)cc3C2=O)c1)c1ccc(Cl)cc1
READING: 2290 nM
//
QUERY SMILES: CC1(C)N=C(N)N=C(N)N1c1ccc(OCCCNC(=O)Nc2cccc(S(=O)(=O)F)c2)c(Cl)c1
READING: 2140 nM
//
QUERY SMILES: O=C(O)c1cc(=O)cc(C(=O)O)o1
READING: > 100000 nM
//
QUERY SMILES: O=Nc1c(-c2c(O)[nH]c3cc(Br)ccc23)[nH]c2ccccc12
READING: 1610 nM
//
QUERY SMILES: CC1(C)N=C(N)N=C(N)N1c1ccc(Cl)cc1
READING: 1180 nM

---

The following molecules are shown together with reported TGI values.
test system: PC-3 prostate; assay: NCI tumour cell line growth inhibition, 48 h

MOLECULE: CON(C)C(=O)[C@H]1C[C@@]1(C)CO
TGI: > 100 µM
//
MOLECULE: Cn1cc(C2=C(c3cn(-c4ccccc4)c4ccccc34)C(=O)NC2=O)c2ccccc21
TGI: > 25 µM
//
MOLECULE: CNC1Cc2c[nH]c3cccc(c23)C12C=C(C)C(=O)O2 (stereo not drawn)
TGI: > 100 µM

---

tested on: SNB-78 CNS; assay: NCI tumour cell line growth inhibition, 48 h
The following molecules are shown together with reported TGI values.

MOLECULE: CC1=NN(C(=O)Nc2ccc(Cl)cc2)C(=O)C2CCC(=O)N12 (stereo not drawn)
TGI: > 100 µM
--
MOLECULE: CC[C@]12C=CCN3CCC4(c5cc([C@@]6(C(=O)OC)CC7CN(CCc8c6[nH]c6ccccc86)C[C@@H]6CCCC[C@H]76)c(OC)cc5N(C)C4[C@](O)(C(=O)OC)C1OC(C)=O)[C@@H]32 (stereo partly drawn)
TGI: 19.9 µM
--
MOLECULE: COc1ccccc1CC(C)N (stereo not drawn)
TGI: > 100 µM

---

tested on: SR leukemia; experiment: NCI tumour cell line growth inhibition, 48 h
EXPERIMENTAL ENDPOINT: TGI

COMPOUND: CC(C)(C)c1cc(/C=N/NC(=O)c2ccccc2NC(=O)c2cccs2)c(O)c(C(C)(C)C)c1
EXPERIMENTAL ENDPOINT: TGI
READING: 3.6 µM
--
COMPOUND: COC(=O)c1ncc2c(=O)[nH]c3ccccc3c2c1C(=O)OC
EXPERIMENTAL ENDPOINT: TGI
READING: > 100 µM
--
COMPOUND: CNC1Cc2c[nH]c3cccc(c23)C12C=C(C)C(=O)O2 (stereo not drawn)
EXPERIMENTAL ENDPOINT: TGI
READING: > 100 µM
--
COMPOUND: COc1ccc(C2ON(c3ccccc3)CC=C2C)cc1 (stereo not drawn)
EXPERIMENTAL ENDPOINT: TGI
READING: > 100 µM
--
COMPOUND: CON(C)C(=O)[C@H]1C[C@@]1(C)CO
EXPERIMENTAL ENDPOINT: TGI
READING: > 100 µM
--
COMPOUND: O=C1CC(c2ccccc2)Cc2nc3ccc(Br)cc3cc21 (stereo not drawn)
EXPERIMENTAL ENDPOINT: TGI
READING: > 36.8 µM
--
COMPOUND: C=C(C)[C@@H]1CCC2=C[C@H](C/C(C)=C\C3=CC(C)=C(O3)[C@H]1O)OC2=O
EXPERIMENTAL ENDPOINT: TGI
READING: > 100 µM
--
COMPOUND: NC(=S)N/N=C1\c2ccccc2-c2c(F)c(F)c(F)c(F)c21
EXPERIMENTAL ENDPOINT: TGI
READING: 1.86 µM
--
COMPOUND: N#Cc1ccc(-c2nc3c(N)nc(-c4ccccc4)nc3o2)cc1
EXPERIMENTAL ENDPOINT: TGI
READING: > 100 µM
--
COMPOUND: CN/C=C(\C(=O)c1ccc(OC)c(OC)c1)c1ccc(OC)cc1
EXPERIMENTAL ENDPOINT: TGI
READING: 60.7 µM
--
COMPOUND: CC1C2CC(CC2(C)O)C1(C)C (stereo not drawn)
EXPERIMENTAL ENDPOINT: TGI
READING: > 100 µM
--
COMPOUND: C#Cc1cccc(Nc2ncnc3ccc(OCCCCNCCS(C)(=O)=O)cc23)c1
EXPERIMENTAL ENDPOINT: TGI
READING: 15.3 µM
--
COMPOUND: Cn1c2c(c3ccccc31)CCN(CCCCN1CCN(c3ccccc3)CC1)C2=O
EXPERIMENTAL ENDPOINT: TGI
READING: > 100 µM

---

tested on: SNB-75 CNS; assay: NCI tumour cell line growth inhibition, 48 h

COMPOUND: O=C(NNC1=NCCCN1)c1ccco1
TARGET OR TEST SYSTEM: SNB-75 CNS
TGI: > 100 µM
--
COMPOUND: OCC[N+]12CCCN1CCC2
TARGET OR TEST SYSTEM: SNB-75 CNS
TGI: > 100 µM
--
COMPOUND: N#CC1=C2SCCN2C(=O)C(C#N)C12CCCCC2 (stereo not drawn)
TARGET OR TEST SYSTEM: SNB-75 CNS
TGI: > 100 µM

---

test system: RXF 393 renal; assay: NCI tumour cell line growth inhibition, 48 h
The following compounds are shown together with reported TGI values.
EXPERIMENTAL ENDPOINT: TGI

COMPOUND: CCOC(=O)C1(C#N)C(=O)c2cc[n+](CC[n+]3ccc4c(c3)C(=O)C(C#N)(C(=O)OCC)C4=O)cc2C1=O (stereo not drawn)
EXPERIMENTAL ENDPOINT: TGI
READING: > 100 µM
--
COMPOUND: Cc1cc(=O)oc2c(CNC(CO)C(=O)O)c(O)ccc12 (stereo not drawn)
EXPERIMENTAL ENDPOINT: TGI
READING: > 100 µM
--
COMPOUND: CCC1C(C(=O)Nc2ccccc2C)=C(C)NC(C)=C1c1ccccc1C (stereo not drawn)
EXPERIMENTAL ENDPOINT: TGI
READING: > 100 µM
--
COMPOUND: COC(=O)C1=C(C)N2CCSC2(C)C(C(=O)OC)C1c1cccc(Cl)c1 (stereo not drawn)
EXPERIMENTAL ENDPOINT: TGI
READING: 53.5 µM
--
COMPOUND: CC(C)(C)c1cc(CCCCCCCC2(CCCCCCCc3cc(C(C)(C)C)cc(C(C)(C)C)c3)OC(COCCOCCCCCC#N)C(COCCOCCCCCC#N)O2)cc(C(C)(C)C)c1 (stereo not drawn)
EXPERIMENTAL ENDPOINT: TGI
READING: > 100 µM
--
COMPOUND: O=C(Oc1c(Cl)cc(C2(c3cc(Cl)c(OC(=O)c4ccccc4)c(Cl)c3)CCCCC2)cc1Cl)c1ccccc1
EXPERIMENTAL ENDPOINT: TGI
READING: 25.9 µM
--
COMPOUND: CSc1nc(CO)c(CO)n1C
EXPERIMENTAL ENDPOINT: TGI
READING: > 100 µM
--
COMPOUND: Cc1c(/C=N/NC(=S)Nc2ccc(Cl)cc2)c(=O)n(-c2ccccc2)n1C
EXPERIMENTAL ENDPOINT: TGI
READING: 28 µM
--
COMPOUND: CN(C)CCC(CCN(C)C)=NO
EXPERIMENTAL ENDPOINT: TGI
READING: > 100 µM
--
COMPOUND: S=c1c2[nH]cnc2ncn1CCSC1=NC=NC2=NC=NC21 (stereo not drawn)
EXPERIMENTAL ENDPOINT: TGI
READING: > 100 µM
--
COMPOUND: O=C(Cc1nc2ccccc2o1)C(=O)Nc1cccc(Cl)c1
EXPERIMENTAL ENDPOINT: TGI
READING: > 100 µM
--
COMPOUND: COc1ccccc1C(=O)NO
EXPERIMENTAL ENDPOINT: TGI
READING: > 100 µM
--
COMPOUND: CN(C)Cc1cc(C(=O)/C=C/c2ccc(Cl)c(Cl)c2)cc(CN(C)C)c1O
EXPERIMENTAL ENDPOINT: TGI
READING: 11.1 µM

The reported measurements were obtained from PubChem BioAssay (NCI).
